- System: biotinyl-Trp-oxazolone
- method: self-aminoacylation, catalytic enhancement (BWO) (fold over background); higher = more active; k-Seq, kA / k0A0; sequences stand for … in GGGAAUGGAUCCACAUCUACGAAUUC…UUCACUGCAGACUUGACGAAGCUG
Fewer inactive variants are shown than the library holds.
Reported self-aminoacylation values for the following sequences.
testReadout: self-aminoacylation

>>> assayvalue("CUACUUGAAACAACCGGUCUG [Fam1A.1 aminoacylation ribozyme variant]")
1.24
>>> assayvalue("AAGGUUGCUAACAGUCGCAAG [Fam3.1 aminoacylation ribozyme variant]")
1.65
>>> assayvalue("UUUCACCUAAGUCAUCGGGUG [Fam2.2 aminoacylation ribozyme variant]")
8.11
>>> assayvalue("ACACACUUAAAGCAAUCGGUC [Fam1B.1 aminoacylation ribozyme variant]")
0.971
>>> assayvalue("AUUACCCGGGUUAUCGAGUGA [Fam2.1 aminoacylation ribozyme variant]")
14.6
>>> assayvalue("CUACUCCAAACUAUCGGUCUG [Fam1A.1 aminoacylation ribozyme variant]")
0.822
>>> assayvalue("CCCCACUUUAAGCAAUCGGUC [Fam1B.1 aminoacylation ribozyme variant]")
2.1
>>> assayvalue("AAGUUGGCUAAGAGUCGCAAG [Fam3.1 aminoacylation ribozyme variant]")
2.13
>>> assayvalue("AAAUUUGCUAAUAGUCGCAGG [Fam3.1 aminoacylation ribozyme variant]")
3.16
>>> assayvalue("AUUCACCAAGGUCAUCGGGCG [Fam2.2 aminoacylation ribozyme variant]")
3.82
>>> assayvalue("AUUACCCUGGUCAUCGAGUCU [Fam2.1 aminoacylation ribozyme variant]")
0.846
>>> assayvalue("CCACAUUUCAAGCAAUCGUUC [Fam1B.1 aminoacylation ribozyme variant]")
0.727
>>> assayvalue("AGUCACCUAGGUAAUCGGGUG [Fam2.2 aminoacylation ribozyme variant]")
3.64
>>> assayvalue("AAGUCUGCUAAUAGUCGCAAG [Fam3.1 aminoacylation ribozyme variant]")
9.75
>>> assayvalue("AAGUUUUCUAAUAGUCGCAAG [Fam3.1 aminoacylation ribozyme variant]")
1.58
>>> assayvalue("CCACACGUCAAUCAAUCGGUC [Fam1B.1 aminoacylation ribozyme variant]")
0.926
>>> assayvalue("AUUCACUUAGAUCAUCGGGUG [Fam2.2 aminoacylation ribozyme variant]")
2.82
>>> assayvalue("AUUACCCUGGUCAUCGCUUGA [Fam2.1 aminoacylation ribozyme variant]")
3.08
>>> assayvalue("AUUACACUGGUCAUCCAGUGA [Fam2.1 aminoacylation ribozyme variant]")
3.06
>>> assayvalue("AUUGCCCGGGUCAUCGAGUGA [Fam2.1 aminoacylation ribozyme variant]")
6.49
>>> assayvalue("CUACUUCAAACAAUCGGGCUU [Fam1A.1 aminoacylation ribozyme variant]")
1.3
>>> assayvalue("CCCCACUUCAAGCAAUCGUUC [Fam1B.1 aminoacylation ribozyme variant]")
1.12
>>> assayvalue("CUACUUCUAACAAUCGAUCUG [Fam1A.1 aminoacylation ribozyme variant]")
0.416
>>> assayvalue("AAGUUUGCUAAUAGCCGUAAG [Fam3.1 aminoacylation ribozyme variant]")
7.16
>>> assayvalue("CCGCACUUCAAGCAAUCGGUA [Fam1B.1 aminoacylation ribozyme variant]")
2.16
>>> assayvalue("UUUACCCUGGUCAUAGAGUGA [Fam2.1 aminoacylation ribozyme variant]")
7.54
>>> assayvalue("AUUACCCUGGUCAUCGAGGGA [Fam2.1 aminoacylation ribozyme variant]")
5.46
>>> assayvalue("AUUUACCUAGGGCAUCGGGUG [Fam2.2 aminoacylation ribozyme variant]")
3.7
>>> assayvalue("AUUACCUUGGUGAUCGAGUGA [Fam2.1 aminoacylation ribozyme variant]")
5.81
>>> assayvalue("AAGUUUGCUAAUAAUCGAAAG [Fam3.1 aminoacylation ribozyme variant]")
0.78
>>> assayvalue("AUUUACCUAGGUAAUCGGGUG [Fam2.2 aminoacylation ribozyme variant]")
2.92
>>> assayvalue("UAGUUUGCUACUAGUCGCAAG [Fam3.1 aminoacylation ribozyme variant]")
1.23
>>> assayvalue("CCAUACUUCAAGGAAUCGGUC [Fam1B.1 aminoacylation ribozyme variant]")
3.57
>>> assayvalue("CUACCUCAAACAAUCAGUCUG [Fam1A.1 aminoacylation ribozyme variant]")
0.702
>>> assayvalue("AUUCACGUAGGUCAUAGGGUG [Fam2.2 aminoacylation ribozyme variant]")
1.97
